Numbers sourced from paper PMC12136037.

# Target Or System: ~100 representative kinases (Homo sapiens, UniProt O14965)
# Construct: Recombinant protein kinase domains with a concentration of 2 μM
# Sequence (O14965 1-403): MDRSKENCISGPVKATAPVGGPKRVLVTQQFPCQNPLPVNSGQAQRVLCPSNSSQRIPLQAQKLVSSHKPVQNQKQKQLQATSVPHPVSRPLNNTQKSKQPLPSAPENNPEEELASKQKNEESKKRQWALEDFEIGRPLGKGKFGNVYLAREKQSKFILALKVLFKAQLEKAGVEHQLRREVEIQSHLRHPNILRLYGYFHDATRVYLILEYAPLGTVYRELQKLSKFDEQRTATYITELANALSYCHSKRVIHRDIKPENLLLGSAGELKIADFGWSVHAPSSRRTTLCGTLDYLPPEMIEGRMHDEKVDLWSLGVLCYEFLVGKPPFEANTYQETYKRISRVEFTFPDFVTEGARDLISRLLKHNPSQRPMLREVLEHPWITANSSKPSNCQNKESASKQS
# Test: DSF 100 kinase selectivity screen;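 note: compound tested at 20 µM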
# Assay type: binding
# Condition Details: Protein STK6; DSF; average of three replicates
Each entry below carries its recorded dTm.
A bare number is not enough; add the unit after it.

Previously resolved entries follow.
O=C(Nc1cccc(-c2c[nH]c3ncnc(N4CCOCC4)c23)c1)c1cccn(-c2ccc(F)cc2)c1=O [Compound 4] : 7.18 K
O=C(Nc1ccccc1)C1(C(=O)Nc2cccc(-c3c[nH]c4ncnc(N5CCOCC5)c34)c2)CC1 [Compound 12] : 6.39 K
Cc1ccc(C(=O)Nc2ccc(CN3CCN(C)CC3)c(C(F)(F)F)c2)cc1C#Cc1cnc2cccnn12 [Ponatinib, reference compound] : 1.61 K
CC(=O)N1CCN(c2nc(Cl)nc3[nH]cc(-c4cccc(NC(=O)Nc5cc(C(C)(C)C)nn5-c5ccc(C)cc5)c4)c23)CC1 [Compound 31] : 0.55 K

query: Quick check: dTm on ~100 representative kinases (Homo sapiens, UniProt O14965), item Cn1cc(-c2c[nH]c3ncnc(N4CCOCC4)c23)cc1C#N [PFE-360] ?
result: 8.08 K

query: Moving on to CN[C@@H]1C[C@H]2O[C@@](C)([C@@H]1OC)n1c3ccccc3c3c4c(c5c6ccccc6n2c5c31)C(=O)NC4 [Staurosporine]
result: 20.49 K

query: Moving on to CCSc1nc(NC)c2c(-c3cccc(NC(=O)Nc4cc(C(C)(C)C)nn4-c4ccc(C)cc4)c3)c[nH]c2n1 [Compound 32]
result: 0.53 K

---

Each entry below carries its recorded dTm.
# Target Or System: ~100 representative kinases (Homo sapiens, UniProt P55201)
# Construct: Recombinant protein kinase domains with a concentration of 2 μM
# Sequence (P55201 whole entry, the tested form may be a part): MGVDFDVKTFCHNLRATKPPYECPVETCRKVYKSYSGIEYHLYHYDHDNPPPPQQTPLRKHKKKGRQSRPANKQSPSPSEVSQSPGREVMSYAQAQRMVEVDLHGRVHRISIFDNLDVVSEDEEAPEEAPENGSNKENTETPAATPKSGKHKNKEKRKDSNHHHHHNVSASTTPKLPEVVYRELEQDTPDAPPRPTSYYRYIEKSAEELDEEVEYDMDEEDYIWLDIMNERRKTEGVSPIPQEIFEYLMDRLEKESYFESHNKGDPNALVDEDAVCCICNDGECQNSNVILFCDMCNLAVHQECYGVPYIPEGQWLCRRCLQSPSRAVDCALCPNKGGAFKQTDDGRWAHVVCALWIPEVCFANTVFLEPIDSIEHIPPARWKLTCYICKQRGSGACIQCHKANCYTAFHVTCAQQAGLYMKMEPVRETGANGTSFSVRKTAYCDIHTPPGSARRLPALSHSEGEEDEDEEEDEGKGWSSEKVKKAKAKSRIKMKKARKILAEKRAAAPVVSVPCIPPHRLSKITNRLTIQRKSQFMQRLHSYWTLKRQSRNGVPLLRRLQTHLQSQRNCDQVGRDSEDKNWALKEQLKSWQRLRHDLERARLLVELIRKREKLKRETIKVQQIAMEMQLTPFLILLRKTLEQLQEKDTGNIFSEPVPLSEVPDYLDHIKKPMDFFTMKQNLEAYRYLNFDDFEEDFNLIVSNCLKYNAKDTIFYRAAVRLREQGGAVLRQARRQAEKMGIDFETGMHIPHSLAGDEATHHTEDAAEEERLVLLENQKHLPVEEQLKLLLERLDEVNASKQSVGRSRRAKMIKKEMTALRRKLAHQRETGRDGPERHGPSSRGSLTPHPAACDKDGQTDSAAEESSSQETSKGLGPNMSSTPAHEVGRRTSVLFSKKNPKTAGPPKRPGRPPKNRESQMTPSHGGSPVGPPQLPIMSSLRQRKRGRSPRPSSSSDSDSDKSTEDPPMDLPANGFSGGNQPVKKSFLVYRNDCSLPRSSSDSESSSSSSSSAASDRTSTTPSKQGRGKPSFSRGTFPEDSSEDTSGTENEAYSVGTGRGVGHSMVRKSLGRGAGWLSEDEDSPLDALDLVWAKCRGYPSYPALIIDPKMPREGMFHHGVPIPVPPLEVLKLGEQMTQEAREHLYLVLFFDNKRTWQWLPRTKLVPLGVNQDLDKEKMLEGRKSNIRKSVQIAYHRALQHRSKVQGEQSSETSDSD
# Test: DSF 100 kinase selectivity screen;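 note: compound tested at 20 µM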
# Type: binding
# Condition Details: Protein BRPF1; average of three replicates
Numbers only here, please. The scale is K.

CC(C)(C)c1cc(NC(=O)Nc2cccc(-c3c[nH]c4ncnc(N5CCOCC5)c34)c2)n(-c2ccc3ncccc3c2)n1 [Compound 28] : 0.57
COc1cc(S(C)(=O)=O)ccc1Nc1nc(N(C)C)c2c(Cl)c[nH]c2n1 [Compound 37] : -0.21
CCSc1nc(NC)c2c(-c3cccc(NC(=O)Nc4cc(C(C)(C)C)nn4-c4ccc(C)cc4)c3)c[nH]c2n1 [Compound 32] : -0.60
O=C(Nc1cccc(-c2c[nH]c3ncnc(N4CCOCC4)c23)c1)C1(C(=O)Nc2cccc3c2CCC3)CC1 [Compound 11] : 1.49
O=C(Nc1cccc(-c2c[nH]c3ncnc(N4CCOCC4)c23)c1)C1(C(=O)Nc2ccc(F)c(Cl)c2)CC1 [Compound 18] : 1.47

Please examine the following record next.
query: Given the molecule Cc1cc(F)ccc1NC(=O)C1(C(=O)Nc2cccc(-c3c[nH]c4ncnc(N5CCOCC5)c34)c2)CC1 [Compound 24] , what is its reported dTm?
result: -0.10
